MEASURED ON: UniProtKB Q16620
Sequence (Q16620 whole entry, looked up): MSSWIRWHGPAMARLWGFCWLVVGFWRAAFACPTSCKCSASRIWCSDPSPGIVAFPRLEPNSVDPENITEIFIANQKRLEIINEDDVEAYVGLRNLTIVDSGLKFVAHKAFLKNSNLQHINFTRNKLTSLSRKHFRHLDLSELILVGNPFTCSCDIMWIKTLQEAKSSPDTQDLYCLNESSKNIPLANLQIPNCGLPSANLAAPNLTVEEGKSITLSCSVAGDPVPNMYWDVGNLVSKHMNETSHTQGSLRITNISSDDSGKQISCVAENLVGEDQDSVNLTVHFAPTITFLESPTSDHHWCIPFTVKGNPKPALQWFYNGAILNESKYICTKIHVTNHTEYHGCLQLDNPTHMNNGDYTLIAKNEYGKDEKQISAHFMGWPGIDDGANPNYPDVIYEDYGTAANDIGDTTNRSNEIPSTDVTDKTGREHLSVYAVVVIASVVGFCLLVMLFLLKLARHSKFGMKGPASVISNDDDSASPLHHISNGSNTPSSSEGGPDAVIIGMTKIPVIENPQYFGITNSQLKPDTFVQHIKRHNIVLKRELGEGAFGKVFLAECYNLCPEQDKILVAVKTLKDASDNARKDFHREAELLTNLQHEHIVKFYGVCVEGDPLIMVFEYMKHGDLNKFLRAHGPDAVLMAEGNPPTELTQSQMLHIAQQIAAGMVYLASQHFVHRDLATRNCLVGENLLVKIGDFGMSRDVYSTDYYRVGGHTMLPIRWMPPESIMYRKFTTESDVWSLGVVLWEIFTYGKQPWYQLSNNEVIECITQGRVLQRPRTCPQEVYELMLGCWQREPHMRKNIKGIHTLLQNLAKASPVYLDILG
PROTOCOL DETAILS: radiometric filter-binding kinase assay, Kinase HotSpot
COND: compound 0.5 µM; ATP 10 µM
Just a reminder that ties go to rule not met: only residual activity strictly below 90% counts as rule met.

# example entries with known answers
[ask] A record lists "Nc1ncnc2c1c(-c1ccc(Oc3ccccc3)cc1)cn2C1CCCC1" . Is its residual activity below 90%?
[reply] rule met

[ask] A record lists "O=C1NC(=O)C(c2cn(CCCn3ccnc3)c3ccccc23)=C1Nc1ccccc1" . Is its residual activity below 90%?
[reply] rule met

[ask] A record lists "Nc1ccc2ncnc(NCCc3ccc(Oc4ccccc4)cc3)c2c1" . Is its residual activity below 90%?
[reply] rule not met

[ask] A record lists "N#CC(C#N)=C(N)/C(C#N)=C/c1ccc(O)cc1" . Is its residual activity below 90%?
[reply] rule not met

***
[ask] A record lists "CNc1cc2c(Nc3cccc(Br)c3)ncnc2cn1" . Is its residual activity below 90%?
[reply] rule not met

[ask] A record lists "c1ccc(-c2n[nH]cc2-c2ccnc3ccccc23)nc1" . Is its residual activity below 90%?
[reply] rule not met

[ask] A record lists "CCN(CC)C(=O)c1ccc(Nc2nc(OCC3CCCCC3)c3nc[nH]c3n2)cc1" . Is its residual activity below 90%?
[reply] rule met

[ask] A record lists "CCOC(=O)c1c(C)[nH]c(/C=C2\C(=O)Nc3ccccc32)c1C" . Is its residual activity below 90%?
[reply] rule met

[ask] A record lists "CCN(CC)CCNC(=O)c1c(C)[nH]c(/C=C2\C(=O)Nc3ccc(Cl)cc32)c1C" . Is its residual activity below 90%?
[reply] rule met

[ask] A record lists "N#C/C(=C(/N)Sc1ccc(N)cc1)c1ccccc1C(F)(F)F" . Is its residual activity below 90%?
[reply] rule not met

[ask] A record lists "Cc1ccc(NC2=CC(=O)c3sc(C)nc3C2=O)cc1" . Is its residual activity below 90%?
[reply] rule not met

[ask] A record lists "Cc1ccc(S(=O)(=O)/C=C/C#N)cc1" . Is its residual activity below 90%?
[reply] rule not met

[ask] A record lists "CC[n+]1c(/C=C/N(C)c2ccccc2)n(-c2ccccc2)c2ccc(-c3nc4ccccc4s3)cc21" . Is its residual activity below 90%?
[reply] rule not met

[ask] A record lists "COc1ccc2c(c[n+](C)c3c4cc5c(cc4ccc23)OCO5)c1OC" . Is its residual activity below 90%?
[reply] rule not met

[ask] A record lists "COc1ccc(COc2ccc(Cc3cnc(N)nc3N)cc2OC)cc1" . Is its residual activity below 90%?
[reply] rule met

[ask] A record lists "O=c1cc(N2CCOCC2)oc2c1ccc1ccccc12" . Is its residual activity below 90%?
[reply] rule not met

[ask] A record lists "c1ccc(-c2n[nH]c3c2oc2ccccc23)cc1" . Is its residual activity below 90%?
[reply] rule met
